Assay System: aggrecanase-1 (Homo sapiens, UniProt O75173)
Sequence (O75173 213-837): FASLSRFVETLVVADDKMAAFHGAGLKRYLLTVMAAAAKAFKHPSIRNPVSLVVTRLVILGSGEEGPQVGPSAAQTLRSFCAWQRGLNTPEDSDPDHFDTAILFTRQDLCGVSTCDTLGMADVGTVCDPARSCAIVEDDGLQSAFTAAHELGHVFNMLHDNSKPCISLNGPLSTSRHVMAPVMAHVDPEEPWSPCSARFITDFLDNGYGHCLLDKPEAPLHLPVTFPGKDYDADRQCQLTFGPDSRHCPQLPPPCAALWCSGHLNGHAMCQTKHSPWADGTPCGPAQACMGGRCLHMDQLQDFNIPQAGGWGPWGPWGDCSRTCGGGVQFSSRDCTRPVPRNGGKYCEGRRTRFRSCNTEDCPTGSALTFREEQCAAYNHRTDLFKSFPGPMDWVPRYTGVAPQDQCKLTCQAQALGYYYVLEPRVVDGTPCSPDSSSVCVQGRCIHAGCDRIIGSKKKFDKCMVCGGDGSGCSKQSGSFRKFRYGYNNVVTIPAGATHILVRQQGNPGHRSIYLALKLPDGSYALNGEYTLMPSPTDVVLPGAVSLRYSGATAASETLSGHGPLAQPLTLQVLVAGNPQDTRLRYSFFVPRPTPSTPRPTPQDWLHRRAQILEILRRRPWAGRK
Assay Method Text: Aggrecanase-1 inhibitory action (Particle Assay, GAG release from aggrecan-containing polyacrylamide particles)
Type: biochemical
Assay Context: aggrecanase-1 inhibitory action; read-out: IC50 AG1 (Experimental Example 1)
Parameter: IC50

> print(dat)
                                   molecule  recorded.result
1  O=C(O)C1(CS(=O)(=O)c2ccc(-c3ccc(Cl)cc3)s2)CC1c1ccccc1 (centres unmarked) [Example 2-187]       ≥ 10000 nM
2  COCCN(C)C(=O)c1ccccc1C1CC1(NS(=O)(=O)c1ccc(-c2ccc(Cl)cc2)s1)C(=O)O (centres unmarked) [Example 2-71]         < 100 nM
3  COc1cccc(C2CC2(NS(=O)(=O)c2ccc(-c3ccc(Cl)cc3)s2)C(=O)O)c1 (centres unmarked) [Example 1-115]        < 1000 nM
4  O=C(O)C1(NS(=O)(=O)N2CCN(Cc3ccccc3)CC2)CC1c1ccccc1 (centres unmarked) [Example 2-158]       ≥ 10000 nM
5  O=C(O)[C@]1(NS(=O)(=O)c2ccc(-c3ccc(Cl)cc3)s2)C[C@@H]1c1ccccc1CO [Example 2-206]         < 100 nM
6  O=C(O)C1(NS(=O)(=O)c2ccc(-c3ccc(Cl)cn3)s2)CC1c1ccccc1CO (centres unmarked) [Example 2-63]         < 100 nM
7  O=C(O)c1cccc(C2CC2(NS(=O)(=O)c2ccc(-c3ccc(Cl)cc3)s2)C(=O)O)c1 (centres unmarked) [Example 1-113]         < 100 nM
8  O=C(O)[C@]1(NS(=O)(=O)c2ccc(-c3cc(C(F)F)on3)cc2)C[C@@H]1c1ccccc1 [Example 2-152]        < 1000 nM

The origin of these recorded values is patent US20080261994A1.
